- ASSAY OVERVIEW: Clearance in mouse xenografted with human MIAPaCa2 cells at 9.1 mg/kg, iv administered as single dose
- Type: ADME, organism-based
- DETAILS: in vivo
MEASURE NAME: clearance (mL/min/kg)
Write it as a number; the unit mL/min/kg goes unstated.

Q: Please give the measured clearance for this compound: `O=C1c2ccc3c4c(c(NCCN5CCCC5)cc(c24)C(=O)N1CCCN1CCOCC1)C(=O)N(CCCN1CCOCC1)C3=O`
Ans: 10.9

---

- ASSAY OVERVIEW: AUC (infinity) in mouse xenografted with human MIAPaCa2 cells at 9.1 mg/kg, iv administered as single dose
- Type: ADME, organism-based
- Set-up: route intravenous, time infinity, dose 9.1 mg/kg
- DETAILS: in vivo
MEASURE NAME: AUC(0-inf) (ng·h/mL)
Output spec: scalar in ng·h/mL, unitless text.

Q: Any idea what its AUC(0-inf) is? The compound is `O=C1c2ccc3c4c(c(NCCN5CCCC5)cc(c24)C(=O)N1CCCN1CCOCC1)C(=O)N(CCCN1CCOCC1)C3=O`
Ans: 14500

---

- ASSAY OVERVIEW: Half life in rat at 1 mg/kg, iv administered as single dose
- Format: ADME, organism-based
- DETAILS: in vivo
MEASURE NAME: half-life

Q: Fill blank: measured half-life of the molecule `O=C1c2cc(-c3ccc(CN4CCCC4)cc3)c3c4c(cc(NCCN5CCCC5)c(c24)C(=O)N1CCCN1CCOCC1)C(=O)N(CCCN1CCOCC1)C3=O` is ____.
Ans: 36 h

---

- ASSAY OVERVIEW: Volume of distribution at steady state in mouse xenografted with human MIAPaCa2 cells at 0.96 mg/kg, iv administered as single dose
- Type: ADME, organism-based
- DETAILS: in vivo, read-out: Vdss
MEASURE NAME: Vd (L/kg)
Unit L/kg implied. Number only.

Q: Entry `O=C1c2cc(-c3ccc(CN4CCCC4)cc3)c3c4c(cc(NCCN5CCCC5)c(c24)C(=O)N1CCCN1CCOCC1)C(=O)N(CCCN1CCOCC1)C3=O` has what Vd?
Ans: 1.2

---

- ASSAY OVERVIEW: Cmax in mouse xenografted with human MIAPaCa2 cells at 9.1 mg/kg, iv administered as single dose
- Assay type: ADME, organism-based
- Design: route intravenous, dose 9.1 mg/kg
- DETAILS: in vivo
MEASURE NAME: Cmax (ng/mL)
Please give a number only; it is taken to be in ng/mL.

Q: Please report the recorded Cmax for `O=C1c2ccc3c4c(c(NCCN5CCCC5)cc(c24)C(=O)N1CCCN1CCOCC1)C(=O)N(CCCN1CCOCC1)C3=O` .
Ans: 4520

---

- ASSAY OVERVIEW: Apparent volume of distribution in mouse xenografted with human MIAPaCa2 cells at 14 mg/kg, iv administered as single dose
- Format: ADME, organism-based
- DETAILS: in vivo, read-out: Vz
MEASURE NAME: Vd
For clarity, give the value followed by its unit.

Q: Recorded Vd of `O=C1c2ccc3c4c(c(NCCN5CCCC5)cc(c24)C(=O)N1CCCN1CCOCC1)C(=O)N(CCCN1CCOCC1)C3=O` , please.
Ans: 11.8 L/kg
